Give measured growth for each item. Keep answers brief.
Test system: MDA-MB-231 breast
Test: NCI-60 one-dose screen, 48 h (100 = growth as untreated, 0 = no growth, -100 = all killed)
Conditions: 10 µM unless noted
The panel holds about 83,000 compounds, 20% with a hit somewhere; the sample as a whole holds those more often.
Record the value in %, omitting the unit from your answer.

Input line: Give growth for "CC1=C(O)C(=O)C(c2c(C)cc(C)c(Br)c2C)=C(O)C1=O"
Output line: 93.5

Input line: Give growth for "COc1ccc(/C=C/C(=O)c2ccc(NC(=O)CSc3nnc(-c4ccc(Cl)cc4)n3-c3ccccc3)cc2)cc1"
Output line: 91

Input line: Give growth for "CCOC(=O)C(Nc1ccccc1)C(=O)OCC"
Output line: 105

Input line: Give growth for "CN(CCO)c1ccc(N2Cc3ccccc3OC3=C2C(=O)c2c(O)ccc(O)c2C3=O)cn1"
Output line: -90.2

----------
Give measured growth for each item. Keep answers brief.
Tested on: DU-145 prostate
Assay: NCI-60 one-dose screen, 48 h (100 = growth as untreated, 0 = no growth, -100 = all killed)
Conditions: 10 µM unless noted
This is part of a sample that, as a whole, favours compounds with a hit. Of some 83,000 tested, about 20% had one in any assay.
Record the value in %, omitting the unit from your answer.

Input line: Give growth for COc1ccc(-c2nsc3c2NC(=O)CC3c2cccc(F)c2)cc1 (configuration not stated)
Output line: 53.7

Input line: Give growth for CCc1ccc2c(c1)N(CCO)C1=C(C(=O)OC1)C2c1cccc(Cl)c1 (configuration not stated)
Output line: 11.3

Input line: Give growth for COC1=CC(c2ccc[nH]2)=N/C1=C\c1[nH]c(C)c(C(=O)CCCCCCCCC(=O)O[C@H]2CC[C@H]3C4CCc5cc(O)ccc5C4CC[C@]23C)c1C (some centres not stated)
Output line: 32.2

Input line: Give growth for "CN1CCN(Cc2ccc(NC(=O)c3cncc(C#Cc4cnc5cccnn45)c3)cc2C(F)(F)F)CC1"
Output line: 3.43

Input line: Give growth for "CC(C)c1[nH]ncc1-c1nc2ccc3[nH]ncc3c2c2c1CCCC2"
Output line: 33.9

Input line: Give growth for "CN(C)c1ccc(/C=C(\C#N)c2nc3ccccc3n2C)cc1"
Output line: 25.7

Input line: Give growth for CCN(CC)CCCC(C)Nc1cnc(C(=O)Nc2ccc(Cl)c3cccnc23)cn1 (configuration not stated)
Output line: 53.1

Input line: Give growth for "CN1CCN(Cc2ccc(NC(=O)c3ccc(C#N)c(C#Cc4cnc(N)c5ncccc45)c3)cc2C(F)(F)F)CC1"
Output line: 28.8

Input line: Give growth for "Cc1cc(C)cc(NC(=O)Cn2nncc2CN2C(=O)CSC2=O)c1"
Output line: 109

Input line: Give growth for "Oc1ccc(Nc2ncnc3c2sc2ncccc23)cc1"
Output line: 17.2

Input line: Give growth for CCN(CC)Cc1cc(Nc2nc(NC3CCC(N(C)C)CC3)c3ccccc3n2)ccc1OC (configuration not stated)
Output line: 98.8

Input line: Give growth for "Cc1nc2c(-c3cnc(N)nc3)nc(N3CCOCC3)nc2n1C(C)C"
Output line: 13.4

Input line: Give growth for "CCOc1ccc([C@@H]2[C@@H](Oc3ccccc3)C(=O)N2c2cc(OC)c(OC)c(OC)c2)cc1"
Output line: 12.5

Input line: Give growth for "Cc1c(O)c(=O)n(-c2ccccc2)n1C"
Output line: 116

Input line: Give growth for "COc1cc(OC)cc(-c2n/c(=C\c3c(O)[nH]c4ccc(Cl)cc34)cc3c2=Nc2ccccc2-3)c1"
Output line: 18.4

Input line: Give growth for N#Cc1c(NN)n(C2OC(CO)C(O)C2O)c2ncnc(N)c12 (configuration not stated)
Output line: -0.273

Input line: Give growth for "CCc1ccc(-c2ccc(NC3CCCCCC3)nn2)cc1S(N)(=O)=O"
Output line: 114

Input line: Give growth for "CCCCn1cnc(-c2cc(-c3ccccc3)cc(C(F)(F)F)c2)n1"
Output line: 106

Input line: Give growth for "COc1ccc(/C(=C\c2cc(OC)c(OC)c(OC)c2)C(=O)N2CCN(c3ccccc3)CC2)cc1O"
Output line: 115

Input line: Give growth for "O=c1c2sc3ncc(Cl)cc3c2nnn1-c1cccc(Cl)c1"
Output line: 65.3

Input line: Give growth for CC1=C(C(=O)Nc2ccc(F)cc2)C(c2ccc(Cl)cc2)C2=C(CC(C)(C)CC2=O)N1 (configuration not stated)
Output line: 105

Input line: Give growth for "CCCc1n(Cc2ccc3ccccc3c2)c2ccccc2[n+]1Cc1ccc2ccccc2c1"
Output line: 2.32

Input line: Give growth for "N#Cc1nc(-c2cccc(Br)c2)cc(-c2ccc(Nc3nc(N4CCCCC4)nc(N4CCCCC4)n3)cc2)c1N"
Output line: -39

Input line: Give growth for "O=C(NCCNC(=O)c1cc(S(=O)(=O)NCCc2ccccc2)c(O)c(O)c1O)c1cc(S(=O)(=O)NCCc2ccccc2)c(O)c(O)c1O"
Output line: 77.1

Input line: Give growth for "COc1ccc(/C=C(/C(=O)N2CCN(c3ccccc3)CC2)c2cc(OC)c(OC)c(OC)c2)cc1N"
Output line: 15.2

Input line: Give growth for "Clc1ccc(Nc2ncnc3c2sc2ncccc23)c(Cl)c1"
Output line: 20.1

Input line: Give growth for COc1ccc(C2C3CCc4ccccc4C3=NN2C(=O)c2cc(OC)c(OC)c(OC)c2)cc1O (configuration not stated)
Output line: 111

Input line: Give growth for "O=C(Nc1cnc(C(F)(F)F)cn1)c1cc(Cl)ccc1O"
Output line: 24.9

Input line: Give growth for "Nc1ccc(N(O)/C=C2\C=CC=CC2=O)cc1N"
Output line: 121

Input line: Give growth for "Cc1cc(Cl)c2ccc(N(C)C)cc2n1"
Output line: 113

Input line: Give growth for CC(CN1CCN(CCOCCO)CC1)CN1c2ccccc2Sc2ccc(Cl)cc21 (configuration not stated)
Output line: 70.3

Input line: Give growth for Nc1ncnc2c1N=C(c1ccc(F)cc1)CC(c1sc(Cl)nc1Cl)N2 (configuration not stated)
Output line: 98.8

Input line: Give growth for "CC(C)[C@H](CN)NC[C@H](C)NS(=O)(=O)c1ccc(C(C)(C)C)cc1"
Output line: 105

Input line: Give growth for "COc1cccc(/C=N/N=C(N)N)c1"
Output line: 102

Input line: Give growth for "Cc1cc(N=Nc2ccc(-c3ccc(N=Nc4ccc(O)c(C(=O)O)c4)cc3)cc2)c(N)c(N=Nc2ccc(C(=O)O)cc2)c1N"
Output line: 110

Input line: Give growth for O=C(O)C1[S][Sb]([CH](C(=O)O)[CH](C(=O)O)[Sb]2[S]C(C(=O)O)C(C(=O)O)[S]2)[S]C1C(=O)O (configuration not stated)
Output line: 97.1

Input line: Give growth for O=C(NCC(c1ccsc1)N1CCCCCC1)c1ccc(C(F)(F)F)cc1 (configuration not stated)
Output line: 105

----------
System: COLO 205 colon
Assay: NCI-60 one-dose screen, 48 h (100 = growth as untreated, 0 = no growth, -100 = all killed)
Conditions: 10 µM unless noted
Compounds without any hit were thinned out: in the full panel of roughly 83,000, 20% have a hit.
Give measured growth for each item. Keep answers brief.
Record the value in %, omitting the unit from your answer.

Input line: Give growth for "Cn1c(=O)c2c3c(oc2c2ccccc21)C(=O)c1ccccc1C3=O"
Output line: 74.5

Input line: Give growth for "CCCCn1cnc(-c2cc(-c3ccccc3)cc(C(F)(F)F)c2)n1"
Output line: 104

Input line: Give growth for "CCOC(=O)c1ccc(NC(=O)NC2=NCCS2)cc1"
Output line: 103

Input line: Give growth for "COc1cccc2nc(Nc3cccc(NC(=O)c4cc(N5CCOCC5)cc(C(F)(F)F)c4)c3)ccc12"
Output line: 62.5

Input line: Give growth for "Cc1cc(Cl)c2ccc(N(C)C)cc2n1"
Output line: 102

Input line: Give growth for O=C1OCC2=C1C(c1cccc(Br)c1)c1cc3c(cc1N2CCO)OCCO3 (stereo not drawn)
Output line: -24.5

Input line: Give growth for "O=C(c1ccc(C(F)(F)F)c(Cl)c1)N(Cc1ccc(Cl)cc1)c1ccc(-c2cc(C(F)(F)F)[nH]n2)c(O)c1"
Output line: -73.8

Input line: Give growth for "O=C(NO)c1ccc(NCc2csc3ccccc23)cc1"
Output line: 50.1

Input line: Give growth for "Nc1nc2ccc([C@@H]3Nc4ccc5[nH]ncc5c4[C@H]4[C@H]5CCC(C5)[C@H]43)cc2s1"
Output line: 6.12

Input line: Give growth for "CCN(CC)CCCCCCCNc1cc(OC)cc2c(C)ccnc12"
Output line: 72.9

Input line: Give growth for "CCOC(=O)Nc1ccc2nc(-c3cscn3)[nH]c2c1"
Output line: 29

Input line: Give growth for "Clc1ccc(-c2nc(Br)cn3ccnc23)cc1"
Output line: 94.5

Input line: Give growth for "Cc1ccc(N2C3c4ccccc4N(S(=O)(=O)c4ccc(C)cc4)C2c2ccccc2N3S(=O)(=O)c2ccc(C)cc2)cc1"
Output line: 115

Input line: Give growth for "[Ag].[Ag].[NH-]S(=O)(=O)c1ccc(N=Nc2cc(N=Nc3ccc(S([NH-])(=O)=O)cc3)c3c(NC(=O)C(Cl)Cl)cccc3c2OC(=O)C(Cl)Cl)cc1.[c-]1nccs1.[c-]1nccs1"
Output line: 6.93

Input line: Give growth for COc1ccc(C(=O)C(C#N)c2cc(OC)c(OC)c(OC)c2)cc1 (stereo not drawn)
Output line: 106

Input line: Give growth for "CCCCN(CCCC)CCC(=O)c1ccc(OC)c2ccccc12"
Output line: 60.1

Input line: Give growth for COc1ccc(C2CC(c3cccc(Nc4ccnc5cc(Cl)ccc45)c3)=NN2c2ccccc2)cc1 (stereo not drawn)
Output line: 80.4

Input line: Give growth for "C#CC[C@@H]1C[C@]2(C)[C@H]3CC=C4[C@H]5[C@@H](C)[C@H](C)CC[C@]5(C(=O)NCCCCCCCCN)CC[C@@]4(C)[C@]3(C)CC[C@H]2C(C)(C)[C@H]1OC(C)=O"
Output line: -23.4

Input line: Give growth for CCCCCCCCNC(C)C(O)c1ccc(SC(C)C)cc1 (stereo not drawn)
Output line: 4.17

Input line: Give growth for "Oc1[nH]c2ccc(Cl)cc2c1/C=c1/ccc2c(c1)N=C(c1ccc(F)cc1)N=2"
Output line: 97.6

Input line: Give growth for "O=C(NNC(=S)Nc1ccccc1)c1ccc(Nc2ncnc3c2cnn3-c2cccc(Br)c2)cc1"
Output line: 103

Input line: Give growth for "Cc1c(-c2ccc(-c3ccccc3F)cc2)nc2ccc(F)cc2c1C(=O)O"
Output line: 49.2

Input line: Give growth for CC(CN1CCN(CCOCCO)CC1)CN1c2ccccc2Sc2ccc(Cl)cc21 (stereo not drawn)
Output line: -79.9

Input line: Give growth for "COc1c(-c2cc(-c3ccc(C)o3)[nH]c(=O)n2)c(O)cc2occc12"
Output line: 104

Input line: Give growth for "CN1CCN(Cc2ccc(NC(=O)c3ccc(C#N)c(C#Cc4cnc(N)c5ncccc45)c3)cc2C(F)(F)F)CC1"
Output line: 77.7

Input line: Give growth for O=C(Oc1c(Cl)c(Cl)c(Cl)c(Cl)c1Cl)C1CCCN1C(=O)OCc1ccccc1 (stereo not drawn)
Output line: 35.9

Input line: Give growth for "CCCc1n(Cc2ccc3ccccc3n2)cc[n+]1Cc1ccc2ccccc2n1"
Output line: -43

Input line: Give growth for "CCn1c(CN2CCN(Cc3ccccc3)CC2)nc2cc(NC(=O)c3cccs3)ccc21"
Output line: -91.3
